# assaySystem: Aurora A (Homo sapiens)
# Sequence (O14965 1-403): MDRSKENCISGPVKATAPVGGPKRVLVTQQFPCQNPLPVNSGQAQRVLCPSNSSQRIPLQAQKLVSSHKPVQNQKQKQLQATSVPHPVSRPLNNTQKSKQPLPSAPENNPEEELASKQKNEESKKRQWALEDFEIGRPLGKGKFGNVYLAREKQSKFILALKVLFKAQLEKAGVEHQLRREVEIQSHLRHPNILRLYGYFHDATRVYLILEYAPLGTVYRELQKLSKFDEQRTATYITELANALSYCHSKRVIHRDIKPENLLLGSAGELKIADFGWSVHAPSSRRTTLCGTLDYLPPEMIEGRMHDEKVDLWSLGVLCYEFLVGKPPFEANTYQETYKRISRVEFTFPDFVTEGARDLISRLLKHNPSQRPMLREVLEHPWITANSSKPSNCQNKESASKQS
# assayInfo: Kinase profiling in vitro, Aurora A
# experimentalContext: recombinant Aurora A, 33P-ATP, 120 min
readoutName: IC50
Number plus unit, in that order.

Exercise: Can you share its IC50? I mean this compound: `CNCCO/N=C1/C(=C2/C(=O)Nc3ccc(Br)cc32)Nc2ccccc21`
Key: 217 nM
